Target: RORγ (UniProt P51449)
Measurement Description: RORγ Gal4 Reporter Gene Assay in 293T cells (firefly and renilla luciferase)
Format: cell-based, human
Form field: pIC50 (FF) (one value per entry).

Sample answers from the record:
Cc1c(C(=O)NCCCCCO)cc(-c2cc(C(C)(C)C)cc(C3(C)CC3)c2)n1CC1CCCCC1 [1/82] = 6.8/7.4/7.4
Cc1cc(S(=O)(=O)NC(C)(C)C)c(C(F)(F)F)cc1-c1cc(C(=O)NC2CCOCC2)c(C)n1CC1CCCCC1 [17/233] = 5.8/6.5/6.5
Cc1c(C(=O)NCCS(N)(=O)=O)cc(-c2cc(C(C)(C)C)cc(C(C)(C)C)c2)n1CC1CCCCC1 [1/9] = 6.5/6.6/6.7

Suppose we examine the compound Cc1c(C(=O)NCCO)cc(-c2cc(C(C)(C)C)cc(C(C)(C)C)c2)n1CC1CCCCC1 [1/54] ; what pIC50 (FF) value has been reported?
6.4/6.3/6.4

I'd like to know its pIC50 (FF). The compound in question is Cc1c(C(=O)NC2CCOCC2)cc(-c2ccc(C(=O)NCC3CCCCC3)c(C(C)(C)C)c2)n1CC1CCCCC1 [6/7]
6.0/6.5/6.4

Quick one: pIC50 (FF) for Cc1c(C(=O)NC2COC2)cc(-c2cc(C(=O)N(C)C(C)(C)C)cc(C(C)(C)C)c2)n1CC1CCCCC1 [15/4] ?
5.8/7.3/7.3

pIC50 (FF) lookup needed for Cc1c(C(=O)NCC(C)(C)NC(=O)C(C)O)cc(-c2cc(C(C)(C)C)c3c(c2)C2(CCO3)CC2)n1CC1CCCCC1 (stereo not drawn) [17/123] , thanks.
5.5/7.0/7.0

Look up pIC50 (FF) for this compound: Cc1c(C(=O)NCCS(C)(=O)=O)cc(-c2cc(C(C)(C)C)c3c(c2)C2(CCO3)CC2)n1CC1CCCCC1 [1/104]
6.3/6.8/6.8
